# tgt: furin, P09958
# Sequence (P09958 whole entry): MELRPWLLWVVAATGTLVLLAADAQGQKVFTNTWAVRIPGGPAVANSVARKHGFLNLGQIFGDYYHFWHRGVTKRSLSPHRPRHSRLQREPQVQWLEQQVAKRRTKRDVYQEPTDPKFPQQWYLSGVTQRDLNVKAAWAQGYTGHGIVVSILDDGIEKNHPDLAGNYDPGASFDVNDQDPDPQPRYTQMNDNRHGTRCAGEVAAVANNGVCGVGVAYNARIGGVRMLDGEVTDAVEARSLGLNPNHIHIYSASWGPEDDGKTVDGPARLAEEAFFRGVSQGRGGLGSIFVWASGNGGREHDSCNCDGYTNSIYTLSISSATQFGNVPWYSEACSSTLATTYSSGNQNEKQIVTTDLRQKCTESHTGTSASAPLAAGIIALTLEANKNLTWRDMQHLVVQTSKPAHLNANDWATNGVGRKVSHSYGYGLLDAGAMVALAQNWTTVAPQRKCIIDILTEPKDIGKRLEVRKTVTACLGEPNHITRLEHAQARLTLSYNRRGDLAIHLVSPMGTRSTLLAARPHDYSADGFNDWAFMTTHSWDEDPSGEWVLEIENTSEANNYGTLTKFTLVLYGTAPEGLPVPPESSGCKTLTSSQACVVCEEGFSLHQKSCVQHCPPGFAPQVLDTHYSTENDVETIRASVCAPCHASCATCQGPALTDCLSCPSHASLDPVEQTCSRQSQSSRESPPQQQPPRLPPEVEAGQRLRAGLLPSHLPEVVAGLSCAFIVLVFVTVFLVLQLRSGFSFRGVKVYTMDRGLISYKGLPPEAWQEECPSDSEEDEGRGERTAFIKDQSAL
# measurement-description: furin cleavage Z-score vs untreated control; higher = more cleavage, active = 3.5 or more, inactive = 1 or less, 8 variable residues between constant flanks;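 further: purified furin at 1:10 enzyme:substrate in 50 mM HEPES pH 7.5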
# setup-conditions: 7.5 min
This is one part of the list. The true hit rate is not given.
Labels: 1.0 for active, 0.0 for inactive

- biosequence: "CADEMEECSQAGNASASA [HC1791]"
  label: 1.0
- biosequence: "CARKKRLEEQAGNASASA [FS-1857]"
  label: 0.0
- biosequence: "CAEVVTSQWVAGNASASA [HC2222]"
  label: 0.0
- biosequence: "CAYHHKFNSSAGNASASA [HC382]"
  label: 0.0
- biosequence: "CARKKRWAERAGNASASA [FS-3257]"
  label: 1.0
- biosequence: "CAKTPCSAHLAGNASASA [HC2474]"
  label: 0.0

Entry source: the supplement of paper PMC3545927
